The measured values listed here are drawn from patent US11993574B2.

- Measured Target: UniProtKB P51449
- Sequence (P51449 269-508 limits assumed): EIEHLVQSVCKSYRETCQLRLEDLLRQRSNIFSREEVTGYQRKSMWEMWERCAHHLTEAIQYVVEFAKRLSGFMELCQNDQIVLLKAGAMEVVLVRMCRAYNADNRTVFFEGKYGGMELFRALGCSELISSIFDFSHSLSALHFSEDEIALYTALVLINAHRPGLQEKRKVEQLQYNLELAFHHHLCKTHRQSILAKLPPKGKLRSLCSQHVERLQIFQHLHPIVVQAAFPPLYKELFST
- Protocol: RORγ assay (GAL4-RORγ hybrid luciferase reporter, Indigo Biosciences)
- Condition Description: inverse-agonist activity, GAL4-RORγ reporter cells, 23 hours
Readout Kind: IC50 (nM)
Numbers only, in nM.

Cc1ccccc1-c1nn(-c2ccc(-c3ccccc3)cc2)c2c1CC[C@@H]1[C@@H](C)C(=O)C(C#N)=C[C@@]21C: 138
C[C@H]1C(=O)C(C#N)=C[C@@]2(C)c3nc(-c4cccc5ncccc45)n(-c4cccc(F)c4)c3CC[C@H]12: 189
C[C@H]1C(=O)C(C#N)=C[C@@]2(C)c3c(c(-c4ccccc4)nn3C3CCCCC3)CC[C@H]12: 98

Next up:
For C[C@H]1C(=O)C(C#N)=C[C@@]2(C)c3nc(-c4ccc(Cl)c(Cl)c4)n(-c4cnn(C)c4)c3CC[C@H]12 the molecule record lists IC50 as 124
